Reference source for all entries: patent US20210130452A1

TARGET_UNDER_TEST: T1, mouse IL-17F (mouse, UniProt Q7TNI7 29-161)
T1 sequence (looked up): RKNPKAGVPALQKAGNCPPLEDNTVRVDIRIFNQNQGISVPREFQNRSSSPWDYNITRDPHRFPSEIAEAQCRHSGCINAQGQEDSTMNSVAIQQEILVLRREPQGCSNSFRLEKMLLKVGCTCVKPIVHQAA
ASSAY_NAME: ELISA, coated IL-17F;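 further: binding ELISA on coated antigen from various species, with bound Nanobodies revealed by an HRP-linked anti-myc antibody and esTMB substrate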
I'd be grateful if you could share measured OD for these entries.
Give bare numbers, in OD.

Examples from the recorded data:
input: # OD lookup, item 13B05 (VHH, Class 4) VHH: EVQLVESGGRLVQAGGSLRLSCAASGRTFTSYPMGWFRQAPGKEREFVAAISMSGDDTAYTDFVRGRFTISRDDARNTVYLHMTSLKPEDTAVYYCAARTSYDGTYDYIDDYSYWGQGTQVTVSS
output: 0.0205

input: Look at this binder and give its reported OD. 24B08 (VHH, Class 3) VHH: EVQLVESGGGLVQAGGSLRLSCAVSGGTFSTYKMGWFRQAPGKEREIVARISTNGPTAYAEFVKGRFTVSRENTKNTVYLQMNSLNIEDTAVYYCAAGYDSLFAGYDYWGQGTQVTVSS
output: -0.0015

input: Tell me the measured OD of 11C08 (VHH, Class 4) VHH: EVQLVESGGGLVQAGGSLRLSCAASGVIFRLNAMGWYRAAPGKQRELVAIIVNGGSTNYADSVKGRFTISRDSAKNAVYLQMNSLKPEDTAVYYCYYNIPGDVYWGQGTQVTVSS , please.
output: -0.0025

Next, consider the following binder.
input: Record request: OD value, item 03C07 (VHH, Class 2) VHH: EVQLVESGGGLVQAGGSLRLSCAASGFTFDDYAIGWFRQAPGKEREAVSCFSSSDGSIYYADSVKGRFTISSDNAKNTVYLQMNSLKPEDTAVYYCAGGGGSYYYTQLNYCYDMDYWGKGTQVTVSS
output: 0.0005
